tested on: MS2 coat protein; experiment: apparent KD of MS2 coat protein, switch ON state; designed switch direction (-1 OFF switch, 1 ON switch): -1; higher = weaker reporter binding; conditions: FMN input: 0 or 200 uM; Eterna round: R93 (includes R88 designs)
readout label: apparent KD of MS2 coat protein
Respond with the figure and its unit, in that order.

Solved entries (count: 2):
Read off the recorded apparent KD of MS2 coat protein for AAAAAGGGAGGAUAUACAUGAGGAUCACCCAUGUAAAAAAAAAAAAAGGGAAAAAAAAGUAGAAGGCCCAAAAA [Apepi]
50.1 nM

Give the reported apparent KD of MS2 coat protein for this sequence. AGUUGGCGAGGAUAUACAUGAGGAUCACCCAUGUGAGAGAAAAAAGUGAGAAAGAAAAGUAGAAGGCGCUGACA [salish99-ex3-05]
49.2 nM

// next item, apparent KD of MS2 coat protein requested
Complete the entry with apparent KD of MS2 coat protein for GAAAAACAUGAGGAUCACCCAUGUCAGGAUAUCGAAAAAUAAAUAAAAAUAAAAUAAACGAGAAGGGACAAAAG [Mat - Same state - Mayanna Mod - D111]
50.2 nM
